Test system: 993429-296-R-J1-PDC complex spheroid growth, percent test/control
Assay: Anticancer human tumor 993429-296-R-J1-PDC patient-derived uterine sarcoma cell line growth inhibition [Asc]
Conditions: second compound 0.03 µM; first compound 0.316 µM; stronger effect = lower value
measure: viability, T/C

{"columns": ["compound", "viability, T/C"],
 "data": [
  ["C=CC(=O)N1CCN(c2nc(=O)n(-c3c(C)ccnc3C(C)C)c3nc(-c4c(O)cccc4F)c(F)cc23)C(C)C1 (stereo not drawn) + CCN1C(C(=O)NC23CCC(C(=O)O)(CC2)CC3)C(c2cccc(Cl)c2F)C2(C(=O)Nc3cc(Cl)ccc32)C12CCCCC2", "108%"],
  ["C=C(F)C(=O)N1CCN(c2nc(OCC3CCCN3C)nc3c2CCN(c2cccc4cccc(Cl)c24)C3)CC1CC#N (stereo not drawn) + CCN1C(C(=O)NC23CCC(C(=O)O)(CC2)CC3)C(c2cccc(Cl)c2F)C2(C(=O)Nc3cc(Cl)ccc32)C12CCCCC2", "103%"]
]}

// moving on: another record for viability, T/C
Value lookup for viability, T/C; key = CNC(C)C(=O)NC1CN(S(=O)(=O)c2cccc(S(=O)(=O)N3CCC4CCC(C(=O)NC(c5ccccc5)c5ccccc5)N4C(=O)C(NC(=O)C(C)NC)C3)c2)CCC2CCC(C(=O)NC(c3ccccc3)c3ccccc3)N2C1=O (stereo not drawn) + CCN1C(C(=O)NC23CCC(C(=O)O)(CC2)CC3)C(c2cccc(Cl)c2F)C2(C(=O)Nc3cc(Cl)ccc32)C12CCCCC2
58%

* * *

Tested on: 993429-296-R-J1-PDC complex spheroid growth, percent test/control
Experiment: Anticancer human tumor 993429-296-R-J1-PDC cell line growth inhibition [Asc];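 further: spheroids exposed to compounds for seven days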
Conditions: second compound 3 µM; first compound 0.01 µM; stronger effect = lower value
Description: Multicellular complex tumor spheroid response to apoptosis pathway targeting inhibitors Alrizomadlin, Pelcitoclax, and Dasminapant in combination with a variety of drugs and investigational agents in selected tumor cell lines […] Compounds. […] If the clinical Cmax for an agent had not been determined, the highest concentration tested was 10 microM. […]
measure: viability, T/C

{"columns": ["molecule", "measured_on", "viability, T/C"],
 "data": [
  ["CCN1CCN(Cc2ccc(Nc3ncc(F)c(-c4cc(F)c5nc(C)n(C(C)C)c5c4)n3)nc2)CC1 + CCN1C(C(=O)NC23CCC(C(=O)O)(CC2)CC3)C(c2cccc(Cl)c2F)C2(C(=O)Nc3cc(Cl)ccc32)C12CCCCC2", "993429-296-R-J1-PDC complex spheroid growth, percent test/control", "92.9%"],
  ["CNC(C)C(=O)NC1CN(S(=O)(=O)c2cccc(S(=O)(=O)N3CCC4CCC(C(=O)NC(c5ccccc5)c5ccccc5)N4C(=O)C(NC(=O)C(C)NC)C3)c2)CCC2CCC(C(=O)NC(c3ccccc3)c3ccccc3)N2C1=O (stereo unspecified) + CCN1C(C(=O)NC23CCC(C(=O)O)(CC2)CC3)C(c2cccc(Cl)c2F)C2(C(=O)Nc3cc(Cl)ccc32)C12CCCCC2", "993429-296-R-J1-PDC complex spheroid growth, percent test/control", "66.8%"],
  ["COc1c(OCCCN2CCOCC2)ccc2c3n(c(=NC(=O)c4cnc(N)nc4)nc12)CCN3 + CCN1C(C(=O)NC23CCC(C(=O)O)(CC2)CC3)C(c2cccc(Cl)c2F)C2(C(=O)Nc3cc(Cl)ccc32)C12CCCCC2", "993429-296-R-J1-PDC complex spheroid growth, percent test/control", "70%"],
  ["Cn1ncnc1[C@H]1c2n[nH]c(=O)c3cc(F)cc(c23)N[C@@H]1c1ccc(F)cc1 + CCN1C(C(=O)NC23CCC(C(=O)O)(CC2)CC3)C(c2cccc(Cl)c2F)C2(C(=O)Nc3cc(Cl)ccc32)C12CCCCC2", "993429-296-R-J1-PDC complex spheroid growth, percent test/control", "72.5%"],
  ["O=C(c1ccc(F)c(F)c1Nc1ccc(I)cc1F)N1CC(O)([C@@H]2CCCCN2)C1 + CCN1C(C(=O)NC23CCC(C(=O)O)(CC2)CC3)C(c2cccc(Cl)c2F)C2(C(=O)Nc3cc(Cl)ccc32)C12CCCCC2", "993429-296-R-J1-PDC complex spheroid growth, percent test/control", "64.4%"]
]}

// moving on: another record for viability, T/C
Value lookup for viability, T/C; key = NC1CCC(NC2CC2c2ccccc2)CC1 (stereo unspecified) + CCN1C(C(=O)NC23CCC(C(=O)O)(CC2)CC3)C(c2cccc(Cl)c2F)C2(C(=O)Nc3cc(Cl)ccc32)C12CCCCC2
74.1%

Data origin: PubChem BioAssay AID1963446
